Kindly state pIC50 for each of the entries shown.
# Experimental System: human DYRK1A (Homo sapiens)
# Construct: Recombinant full-length DYRK1A (expressed in E. Coli cells with an N-terminal GST tag); GST (N); purchased SignalChem D09-10G; host or cells: E. coli
# Assay Protocol: DYRK1A enzyme assay (ADP-Glo)
# Assay type: biochemical
# Settings: ADP-Glo, ATP 60 μM; read-out: DYRK1A IC50
pIC50: −log10 of the molar value.

Enter reported pIC50 observed with human DYRK1A (Homo sapiens) for CN(C1=N/C(=C\c2ccc3[nH]ccc3c2)C(=O)N1)c1ccc2ncsc2c1
< 5.00

And then CN(CCN1CCOCC1)C1=N/C(=C\c2ccc3c(c2)OCO3)C(=O)N1 , what is it?
6.00 to 7.00

And then NC(=O)CCN(C1=N/C(=C\c2ccc3c(c2)OCO3)C(=O)N1)c1ccccc1 , what is it?
6.00 to 7.00

And then O=C1NC(N(Cc2ccccc2)c2ccccc2)=N/C1=C\c1ccc2ncsc2c1 , what is it?
6.00 to 7.00

And then O=C1NC(Nc2ccccc2)=N/C1=C\c1ccc(=O)[nH]c1 , what is it?
6.00 to 7.00

And then O=C1NC(N(CCO)c2ccccc2)=N/C1=C\c1ccc2c(c1)OCO2 , what is it?
6.00 to 7.00

And then CN(C1=N/C(=C\c2ccc3ncccc3c2)C(=O)N1)c1ccc2ncsc2c1 , what is it?
6.00 to 7.00

And then O=C1NC(Nc2ccccc2)=N/C1=C\c1ccc2[nH]ncc2c1 , what is it?
> 7.00

And then O=C1NC(Nc2ccc3[nH]ccc3c2)=N/C1=C\c1ccc2ncsc2c1 , what is it?
> 7.00

And then CN(C1=N/C(=C\c2ccc3c(c2)OCO3)C(=O)N1)c1cccnc1 , what is it?
6.00 to 7.00

And then CN1C(=O)/C(=C/c2ccc3ncsc3c2)N=C1Nc1ccc2ncsc2c1 , what is it?
> 7.00

And then O=C1NC(Nc2ccccc2)=N/C1=C\c1ccc2occc2c1 , what is it?
< 5.00

And then CN(CC1CC1)C1=N/C(=C\c2ccc3c(c2)OCCO3)C(=O)N1 , what is it?
6.00 to 7.00

And then CN(C1=N/C(=C\c2ccc3ncsc3c2)C(=O)N1)c1ccccc1 , what is it?
6.00 to 7.00

And then CC(C)NC1=N/C(=C\c2ccc3scnc3c2)C(=O)N1 , what is it?
< 5.00

And then CN1C(=O)/C(=C/c2ccc3c(c2)OCO3)N=C1N(C)c1ccccc1 , what is it?
5.00 to 6.00

And then O=C1NC(N(CC2CC2)c2ccccc2)=N/C1=C\c1ccc2c(c1)OCCO2 , what is it?
5.00 to 6.00

And then O=C1NC(Nc2ccccc2)=N/C1=C\c1ccc2ncccc2c1 , what is it?
> 7.00

And then CN(C1=N/C(=C\c2ccc3ncsc3c2)C(=O)N1)c1ccc([N+](=O)[O-])cc1 , what is it?
5.00 to 6.00

And then CN(Cc1ccccc1)C1=N/C(=C\c2ccc3ncsc3c2)C(=O)N1 , what is it?
6.00 to 7.00

And then O=C1NC(Nc2ccc3nc(Nc4ccccc4)sc3c2)=N/C1=C\c1ccc2ncsc2c1 , what is it?
5.00 to 6.00

And then CN(CC1CC1)C1=N/C(=C\c2ccc3ncsc3c2)C(=O)N1 , what is it?
5.00 to 6.00

And then COCCN(C1=N/C(=C\c2ccc3ncsc3c2)C(=O)N1)c1ccc2ncsc2c1 , what is it?
6.00 to 7.00

And then CCN(C1=N/C(=C\c2ccc3c(c2)OCO3)C(=O)N1)c1ccccc1 , what is it?
6.00 to 7.00

And then CN(C1=N/C(=C\c2ccc3ncsc3c2)C(=O)N1)c1ccc(Cl)cc1 , what is it?
6.00 to 7.00

And then O=C1NC(=S)N/C1=C\c1ccc2sccc2c1 , what is it?
< 5.00

And then O=C1NC(Nc2ccc3ncsc3c2)=N/C1=C\c1ccc2c(c1)OCO2 , what is it?
< 5.00

And then O=C1NC(N(CC2CC2)c2ccc3ncsc3c2)=N/C1=C\c1ccc2ncsc2c1 , what is it?
< 5.00

Data origin, for the record: patent US12643887B2
